B1: TPR t1 (parent)
chain: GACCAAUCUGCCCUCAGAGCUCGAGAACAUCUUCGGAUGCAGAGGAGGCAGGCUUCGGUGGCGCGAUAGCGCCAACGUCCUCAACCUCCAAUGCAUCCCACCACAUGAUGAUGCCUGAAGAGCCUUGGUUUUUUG

variants of: B1; experiment: polymerase ribozyme fitness, log enrichment relative to wild type (log ratio); higher = more active; in vitro selection for triplet polymerase activity
Tick Yes if polymerase ribozyme fitness (log ratio) is -3 or greater. Tick No if polymerase ribozyme fitness (log ratio) is less than -3.

## Input Record A5G U32C C40U C99U A100U ; criterion: polymerase ribozyme fitness (log ratio) no lower than -3. Met?
## Output No

## Input Record C102U G110U ; criterion: polymerase ribozyme fitness (log ratio) no lower than -3. Met?
## Output No

## Input Record C12U G57C ; criterion: polymerase ribozyme fitness (log ratio) no lower than -3. Met?
## Output Yes

## Input Record A83C C88U ; criterion: polymerase ribozyme fitness (log ratio) no lower than -3. Met?
## Output Yes

## Input Record A24G G69C C85G ; criterion: polymerase ribozyme fitness (log ratio) no lower than -3. Met?
## Output No

## Input Record A5C A18C ; criterion: polymerase ribozyme fitness (log ratio) no lower than -3. Met?
## Output Yes

## Input Record G47A G52A G120A ; criterion: polymerase ribozyme fitness (log ratio) no lower than -3. Met?
## Output Yes

## Input Record G60U G117A ; criterion: polymerase ribozyme fitness (log ratio) no lower than -3. Met?
## Output Yes

## Input Record C104U C123A ; criterion: polymerase ribozyme fitness (log ratio) no lower than -3. Met?
## Output Yes

## Input Record C15A U32C G71C ; criterion: polymerase ribozyme fitness (log ratio) no lower than -3. Met?
## Output Yes

## Input Record C12G G45A U78C A84C U106G ; criterion: polymerase ribozyme fitness (log ratio) no lower than -3. Met?
## Output Yes

## Input Record C56U C72A ; criterion: polymerase ribozyme fitness (log ratio) no lower than -3. Met?
## Output Yes

## Input Record C13A G71A G120A A121U ; criterion: polymerase ribozyme fitness (log ratio) no lower than -3. Met?
## Output Yes

## Input Record G42U A43C G60A C89A ; criterion: polymerase ribozyme fitness (log ratio) no lower than -3. Met?
## Output Yes

## Input Record A5U C56A C102A U116C ; criterion: polymerase ribozyme fitness (log ratio) no lower than -3. Met?
## Output No

## Input Record U21A U92A ; criterion: polymerase ribozyme fitness (log ratio) no lower than -3. Met?
## Output No

## Input Record G48A C64U C73A ; criterion: polymerase ribozyme fitness (log ratio) no lower than -3. Met?
## Output Yes

## Input Record A37C G48C U54C G113A ; criterion: polymerase ribozyme fitness (log ratio) no lower than -3. Met?
## Output Yes

## Input Record U54A C70U G113U C114G A121C ; criterion: polymerase ribozyme fitness (log ratio) no lower than -3. Met?
## Output Yes

## Input Record G42C ; criterion: polymerase ribozyme fitness (log ratio) no lower than -3. Met?
## Output Yes

## Input Record G60C C88A U112A ; criterion: polymerase ribozyme fitness (log ratio) no lower than -3. Met?
## Output Yes

## Input Record C49A U106A ; criterion: polymerase ribozyme fitness (log ratio) no lower than -3. Met?
## Output Yes

## Input Record G47C U112G C115U U130A ; criterion: polymerase ribozyme fitness (log ratio) no lower than -3. Met?
## Output No

Provenance of the data: the RNAGym collection of RNA variant scans (doi:10.1073/pnas.2313332121)
